# study-target: POLγA:G848S (Homo sapiens, UniProt P54098, G848S)
# Sequence (P54098 whole entry G848S, one chain of several): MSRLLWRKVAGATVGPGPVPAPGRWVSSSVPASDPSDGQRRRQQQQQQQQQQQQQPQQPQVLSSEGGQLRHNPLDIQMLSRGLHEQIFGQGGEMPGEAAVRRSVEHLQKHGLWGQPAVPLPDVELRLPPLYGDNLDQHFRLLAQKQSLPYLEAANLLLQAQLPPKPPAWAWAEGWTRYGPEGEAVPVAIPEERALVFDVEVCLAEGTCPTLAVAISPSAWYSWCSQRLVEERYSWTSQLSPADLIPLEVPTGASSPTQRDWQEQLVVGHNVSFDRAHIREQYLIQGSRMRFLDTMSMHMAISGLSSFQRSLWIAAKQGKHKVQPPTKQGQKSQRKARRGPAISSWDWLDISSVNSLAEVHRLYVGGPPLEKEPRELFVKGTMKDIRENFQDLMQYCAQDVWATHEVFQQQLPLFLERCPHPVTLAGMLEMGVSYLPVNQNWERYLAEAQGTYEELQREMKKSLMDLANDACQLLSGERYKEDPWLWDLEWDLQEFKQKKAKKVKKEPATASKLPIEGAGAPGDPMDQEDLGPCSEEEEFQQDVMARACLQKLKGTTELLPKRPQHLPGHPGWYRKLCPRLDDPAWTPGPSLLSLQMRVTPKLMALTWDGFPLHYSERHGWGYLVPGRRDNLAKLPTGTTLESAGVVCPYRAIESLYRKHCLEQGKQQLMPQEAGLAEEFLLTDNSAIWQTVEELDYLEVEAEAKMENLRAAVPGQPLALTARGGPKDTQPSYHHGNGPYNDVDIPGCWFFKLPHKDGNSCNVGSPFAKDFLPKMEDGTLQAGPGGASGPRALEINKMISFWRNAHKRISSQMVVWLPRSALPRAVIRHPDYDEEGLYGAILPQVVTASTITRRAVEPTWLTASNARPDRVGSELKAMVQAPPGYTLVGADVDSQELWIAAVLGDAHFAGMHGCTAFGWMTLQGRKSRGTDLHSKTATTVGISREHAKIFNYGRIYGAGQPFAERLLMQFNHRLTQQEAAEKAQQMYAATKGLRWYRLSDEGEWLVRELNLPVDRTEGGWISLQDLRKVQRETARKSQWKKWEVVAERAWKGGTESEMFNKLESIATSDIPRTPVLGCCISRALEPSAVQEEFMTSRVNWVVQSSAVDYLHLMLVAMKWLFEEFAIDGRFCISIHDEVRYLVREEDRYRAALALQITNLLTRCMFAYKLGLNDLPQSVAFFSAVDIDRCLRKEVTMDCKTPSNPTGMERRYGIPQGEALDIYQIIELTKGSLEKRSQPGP
# assay-name: DNA polymerization assay, POLγA:G848S mutant
# Format: biochemical
# recorded-conditions: stimulation of polymerase activity, primed M13mp18 ssDNA, 37° C. 2 hours; read-out: G848S AC50
endpoint-label: AC50

Reference set, count: 2
query-smiles	AC50
Cc1cc(S(=O)(=O)N[C@@H]2CCCN(C(=O)N3CCCC3)C2)c(C)cc1Cl	> 100 µM
Cc1cc(S(=O)(=O)N[C@@H]2CCCN(c3ccccc3)C2)c(C)cc1Cl	> 100 µM

Turning now to a further record.
// query Find the measured AC50 of Cc1cc(S(=O)(=O)Nc2cccc(-c3ncc(C(=O)O)s3)c2)c(C)cc1Cl and report it.
// result > 100 µM

###

# study-target: POLγA:G848S (Homo sapiens, UniProt P54098, G848S)
# assay-name: DNA polymerization assay, POLγA:G848S mutant
# Format: biochemical
# recorded-conditions: stimulation of polymerase activity, primed M13mp18 ssDNA, 37° C. 2 hours; read-out: G848S AC50
endpoint-label: AC50

Example entries and their recorded answers appear below.
molecule	AC50
Cc1cc(S(=O)(=O)Nc2cccc(C(=O)N(C)c3ccccn3)c2)c(C)cc1Cl	> 100 µM
Cc1cc(S(=O)(=O)Nc2ccccc2-c2ncco2)c(C)cc1Cl	> 100 µM

Record AC50 per entry; entries follow.
1. O=S(=O)(Nc1cccc(-c2nccs2)c1)c1ccc(Cl)cc1
2. Cc1cc2c(NS(=O)(=O)c3cc(C)c(Cl)cc3C)cccc2[nH]1

// result
1. > 100 µM
2. > 100 µM

###

Kindly supply the reported AC50 values for the records listed here.
# study-target: POLγA:R309C (Homo sapiens, UniProt P54098, R309C)
# Sequence (P54098 whole entry R309C, one chain of several): as the sequence (P54098 whole entry G848S, one chain of several) above, with R309C, S848G counted along it
# assay-name: DNA polymerization assay, POLγA:R309C mutant
# Format: biochemical
# recorded-conditions: stimulation of polymerase activity, primed M13mp18 ssDNA, 37° C. 2 hours
Give bare numbers, in µM.

# count of solved cases: 3
query-smiles	result-unit	AC50
CC[C@@H]1CCCN1C(=O)c1cccc(NS(=O)(=O)c2cc(C)c(Cl)cc2C)c1	µM	5
Cc1cc(S(=O)(=O)Nc2ccc3c(c2)CC(=O)N3)c(C)cc1Cl	µM	8
Cc1cc(S(=O)(=O)Nc2cccc(C(=O)N3CCCC[C@H]3C)c2)c(C)cc1Cl	µM	2

API: the following record is the query input.
// query Item Cc1cc(S(=O)(=O)Nc2cccc(-c3ncc(CO)s3)c2)c(C)cc1Cl : provide AC50
// result 4

###

# study-target: POLγA:A467T (Homo sapiens, UniProt P54098, A467T)
# Sequence (P54098 whole entry A467T): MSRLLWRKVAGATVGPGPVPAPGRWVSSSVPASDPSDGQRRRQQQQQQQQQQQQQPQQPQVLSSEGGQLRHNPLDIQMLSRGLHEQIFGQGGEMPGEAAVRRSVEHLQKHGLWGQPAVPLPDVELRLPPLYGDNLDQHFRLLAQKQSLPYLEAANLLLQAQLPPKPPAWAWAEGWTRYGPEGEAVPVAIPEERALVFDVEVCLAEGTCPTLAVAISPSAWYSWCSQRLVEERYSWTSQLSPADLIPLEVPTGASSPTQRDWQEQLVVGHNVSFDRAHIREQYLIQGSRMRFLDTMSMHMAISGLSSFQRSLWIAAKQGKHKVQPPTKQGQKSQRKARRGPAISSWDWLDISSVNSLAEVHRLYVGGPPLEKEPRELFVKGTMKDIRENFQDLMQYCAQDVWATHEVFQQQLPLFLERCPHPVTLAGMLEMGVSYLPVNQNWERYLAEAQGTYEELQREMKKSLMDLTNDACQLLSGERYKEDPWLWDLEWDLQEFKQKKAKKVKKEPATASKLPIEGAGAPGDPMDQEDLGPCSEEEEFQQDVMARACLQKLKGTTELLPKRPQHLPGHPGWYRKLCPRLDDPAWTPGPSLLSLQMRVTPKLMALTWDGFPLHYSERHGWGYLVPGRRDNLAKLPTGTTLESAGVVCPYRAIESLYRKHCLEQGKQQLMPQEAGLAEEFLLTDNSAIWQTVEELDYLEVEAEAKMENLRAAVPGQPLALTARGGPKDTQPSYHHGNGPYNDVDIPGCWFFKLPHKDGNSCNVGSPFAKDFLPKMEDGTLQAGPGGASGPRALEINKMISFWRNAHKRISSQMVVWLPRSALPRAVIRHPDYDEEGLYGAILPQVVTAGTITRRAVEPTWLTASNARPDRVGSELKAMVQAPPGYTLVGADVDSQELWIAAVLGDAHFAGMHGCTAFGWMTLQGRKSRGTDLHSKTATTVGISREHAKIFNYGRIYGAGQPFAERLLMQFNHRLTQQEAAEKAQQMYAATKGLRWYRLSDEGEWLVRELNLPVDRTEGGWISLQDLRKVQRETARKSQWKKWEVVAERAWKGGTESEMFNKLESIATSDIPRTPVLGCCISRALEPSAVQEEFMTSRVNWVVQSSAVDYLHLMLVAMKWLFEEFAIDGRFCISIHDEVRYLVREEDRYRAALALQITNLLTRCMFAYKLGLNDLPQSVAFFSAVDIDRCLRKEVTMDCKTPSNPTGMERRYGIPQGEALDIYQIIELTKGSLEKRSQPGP
# Sequence (Q9UHN1 whole entry partner): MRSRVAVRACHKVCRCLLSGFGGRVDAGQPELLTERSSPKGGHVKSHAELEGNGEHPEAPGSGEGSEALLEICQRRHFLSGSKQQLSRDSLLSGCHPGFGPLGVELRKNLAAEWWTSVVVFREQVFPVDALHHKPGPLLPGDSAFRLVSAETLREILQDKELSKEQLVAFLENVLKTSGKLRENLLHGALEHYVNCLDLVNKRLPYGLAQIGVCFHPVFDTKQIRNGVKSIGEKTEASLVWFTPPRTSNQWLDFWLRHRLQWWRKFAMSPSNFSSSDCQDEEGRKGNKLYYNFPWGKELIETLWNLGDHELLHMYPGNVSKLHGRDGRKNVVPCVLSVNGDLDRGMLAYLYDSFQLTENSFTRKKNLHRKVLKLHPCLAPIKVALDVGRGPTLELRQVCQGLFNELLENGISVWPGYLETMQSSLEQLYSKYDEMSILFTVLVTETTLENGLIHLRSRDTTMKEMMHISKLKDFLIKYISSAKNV
# assay-name: DNA polymerization assay, POLγA:A467T mutant
# Format: biochemical
# recorded-conditions: stimulation of polymerase activity, primed M13mp18 ssDNA, 37° C. 2 hours; read-out: A467T AC50
endpoint-label: AC50

Reference set, count: 2
compound	endpoint-label	assay-value
Cc1ccccc1S(=O)(=O)Nc1cccc(C(=O)N2CCOC[C@@H]2C)c1 [Example 23]	AC50	> 100 µM
O=S(=O)(Nc1csc(-c2ccccc2)n1)c1ccc(C(F)(F)F)cc1F [Example 141]	AC50	> 100 µM

# evaluate next
// query Give AC50 for the following compound: Cc1ccc(S(=O)(=O)Nc2csc(-c3ccccc3)n2)c(C)c1 [Example 123]
// result > 100 µM
